B1: library; numbered along this chain (parent)
chain: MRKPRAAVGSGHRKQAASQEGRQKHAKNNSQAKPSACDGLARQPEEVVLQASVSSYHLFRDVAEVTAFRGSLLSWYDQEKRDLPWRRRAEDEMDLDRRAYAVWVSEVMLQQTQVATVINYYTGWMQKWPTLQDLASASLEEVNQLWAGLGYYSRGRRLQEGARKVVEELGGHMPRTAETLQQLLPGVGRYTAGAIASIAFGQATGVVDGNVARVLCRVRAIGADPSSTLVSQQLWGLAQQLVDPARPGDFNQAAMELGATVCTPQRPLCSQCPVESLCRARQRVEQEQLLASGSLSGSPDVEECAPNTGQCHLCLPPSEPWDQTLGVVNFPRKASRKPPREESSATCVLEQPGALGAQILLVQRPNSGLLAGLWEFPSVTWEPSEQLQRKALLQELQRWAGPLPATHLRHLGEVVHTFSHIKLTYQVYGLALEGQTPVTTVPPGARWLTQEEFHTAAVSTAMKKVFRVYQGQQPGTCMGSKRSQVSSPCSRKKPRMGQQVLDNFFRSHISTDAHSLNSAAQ

# Variants of: B1
# test: 8OG:A repair function score (normalized; synonymous = 0, nonsense = -1) (normalized log-likelihood score); higher = more repair activity (WT-like);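 note: cells sorted at 72 h after reporter transfection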
# condition-label: with 8OG:A DNA repair reporter (GFP) in HEK-293 MUTYH KO cells
test-readout: 8OG:A repair function score

The examples below pair each entry with its known result.
mutation-annotation	test-readout	reported-result
A259K	8OG:A repair function score	-0.197
R495S	8OG:A repair function score	0.013
F250T	8OG:A repair function score	-0.65
T449M	8OG:A repair function score	-0.0649
Q232S	8OG:A repair function score	-0.0424

Batch of 2 variants: report 8OG:A repair function score for each.
1. T424A
2. S227V

[-0.121, -0.241]
